Assayed system: T1, human IGSF11 (VSIG3) expressed on cells (human, UniProt Q5DX21 23-431)
T1 sequence: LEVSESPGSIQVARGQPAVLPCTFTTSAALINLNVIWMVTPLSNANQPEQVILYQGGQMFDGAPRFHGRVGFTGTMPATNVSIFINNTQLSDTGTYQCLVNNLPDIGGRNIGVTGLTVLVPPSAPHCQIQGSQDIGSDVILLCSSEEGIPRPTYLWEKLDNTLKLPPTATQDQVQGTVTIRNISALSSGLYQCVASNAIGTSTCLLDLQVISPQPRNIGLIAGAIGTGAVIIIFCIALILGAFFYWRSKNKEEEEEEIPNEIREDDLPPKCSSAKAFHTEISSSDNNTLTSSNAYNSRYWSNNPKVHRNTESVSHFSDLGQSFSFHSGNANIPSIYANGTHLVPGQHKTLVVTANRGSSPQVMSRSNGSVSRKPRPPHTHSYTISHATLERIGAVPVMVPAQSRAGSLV
Test summary: FACS, M579-A2-luc cells with IGSF11 siRNA (KD, knock-down control)
Listed next: entries and their corresponding % binding (FACS heat-map).
Write the value in % as a bare number.

Reference set, count: 2
A-011 (IgG1 format) (antibody, V domains shown, human IgG1 format) VH: QVQLVESGGGVVQPGRSLRLSCAASGFTFSSYAMHWVRQAPGKGLEWVAVISYDGSNKYYADSVKGRFTISRDNSKNTLYLQMNSLRAEDTAVYYCAEGGALNYYGMDVWGQGTTVTVSS VL: SSELTQDPGVSVALGQTVRITCQGDSLRHFYATWYQQKPGQAPILVIYGKNNRPSGIPDRFSGSSSEDTASLTITGAQAEDEADYYCQSRDPRNNHLIFGGGTKLIVL ... 2.41
A-012 (IgG1 format) (antibody, V domains shown, human IgG1 format) VH: EVQLLESGGGLIQPGGSLRLSCAVSGFTVSSNYMSWVRQAPGKGLEWVSVIYSGGSTYYADSVKGRFTISRDNSKNTLYLQMNSLRAEDTAVYYCARGNPYYYGDLQVNFDYWGQGTLVTVSS VL: QAVVTQEPSLTVSPGGTVTLTCASSTGAVTSGYYPNWFQQKPGQAPRALIYSTSNKHSWTPARFSGSLLGGKAALTLSGVQPEDEAEYYCLLYYGGAWVFGGGTKLTVL ... 2.35

QUERY: Indicate the recorded % binding (FACS heat-map) value for this binder: A-027 (IgG1 format) (antibody, V domains shown, human IgG1 format) VH: QVQLVQSGAEVKKPGSSVKVSCKASGGTFSSYAISWVRQAPGQGLEWMGGIIPIFGTANYAQKFQGRVTITADKSTSTAYMELSSLRSEDTAVYYCARARGSTWGYFDYWGQGTLVTVSS VL: EIVLTQSPASLSLSPGERVTLSCRASQSVSNYLAWYQQKPGQAPRLLIYDASNRATGIPARFSGSGSGTDFTLTISSLEPEDFAVYYCQQRDNWPLTFGGGTKVEIK
RESULT: 2.5
